Molecular target: recombinant thioredoxin reductase 1 (TrxR1) (Homo sapiens (Human), UniProt Q16881)
Sequence (Q16881 151-649): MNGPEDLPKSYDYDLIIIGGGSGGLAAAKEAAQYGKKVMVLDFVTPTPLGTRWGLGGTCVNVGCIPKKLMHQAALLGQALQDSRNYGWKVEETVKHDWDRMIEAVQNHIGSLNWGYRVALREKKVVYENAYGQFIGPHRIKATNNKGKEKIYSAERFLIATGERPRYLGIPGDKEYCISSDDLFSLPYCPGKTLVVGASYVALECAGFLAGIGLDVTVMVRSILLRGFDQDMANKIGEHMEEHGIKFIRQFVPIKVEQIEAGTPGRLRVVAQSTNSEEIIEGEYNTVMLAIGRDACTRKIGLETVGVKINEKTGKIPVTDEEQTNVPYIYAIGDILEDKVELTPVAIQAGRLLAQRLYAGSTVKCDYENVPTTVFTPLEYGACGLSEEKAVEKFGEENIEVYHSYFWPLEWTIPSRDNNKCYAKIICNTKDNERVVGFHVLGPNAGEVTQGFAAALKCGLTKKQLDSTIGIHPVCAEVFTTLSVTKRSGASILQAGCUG
Assay: Inhibition of recombinant TrxR1 (DTNB assay)
Details: 30 nM TrxR1, 250 μM NADPH, 15 minutes incubation, O.D. 412 nm, read-out: TrxR inhibition (IC50)
Method: Small molecule inhibition of recombinant thioredoxin reductase 1 (TrxR1) and gluthathione reductase (GR) was examined in 96-well plate format. 30 nM TrxR1 was incubated in the presence of 250 μM NADPH, 0.1 mg/ml BSA, and various concentrations of compound (1% DMSO final) in 50 mM Tris (pH 7.5) and 2 mM EDTA buffer for 15 minutes. […] Percent activity was determined using DMSO vehicle and no TrxR1 (blank) controls. […] Percent activity was determined using DMSO vehicle and no GR (blank) controls.
Observable: pIC50
// field semantics: pIC50 = negative decimal log of concentration (mol/L)

Input line: Request the reported pIC50 associated with COc1ccc([N+](=O)[O-])c([S+]([O-])c2ccc(Cl)cc2)n1 (stereo not shown)
Output line: 8.50
